# study_system: HIV Env, isolate ZM249M.PL1 (HIV)
# assay_remarks: cell-based or functional assay
measured_quantity: IC80 (µg/ml) with constrains (µg/mL)
Give the number; µg/mL is assumed, so skip it.

Some entries whose results are on file:
binder="ePGDM13 (antibody, V domains shown) VH: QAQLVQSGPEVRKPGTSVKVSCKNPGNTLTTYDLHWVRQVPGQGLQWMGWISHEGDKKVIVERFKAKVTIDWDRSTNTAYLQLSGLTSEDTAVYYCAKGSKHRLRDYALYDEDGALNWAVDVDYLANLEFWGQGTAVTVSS VL: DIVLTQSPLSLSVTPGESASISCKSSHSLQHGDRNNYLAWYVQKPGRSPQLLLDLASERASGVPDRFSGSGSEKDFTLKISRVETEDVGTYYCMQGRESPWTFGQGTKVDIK" measured_quantity="IC80 (µg/ml) with constrains" meas_value=0.056
binder="ePGDM5 (antibody, V domains shown) VH: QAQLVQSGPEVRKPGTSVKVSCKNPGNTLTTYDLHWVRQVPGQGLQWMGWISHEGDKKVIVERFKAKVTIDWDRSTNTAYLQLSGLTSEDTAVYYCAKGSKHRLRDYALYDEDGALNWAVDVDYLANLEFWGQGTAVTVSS VL: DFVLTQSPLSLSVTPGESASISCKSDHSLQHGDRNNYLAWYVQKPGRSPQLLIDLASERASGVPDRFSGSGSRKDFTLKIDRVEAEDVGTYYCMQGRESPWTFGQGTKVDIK" measured_quantity="IC80 (µg/ml) with constrains" meas_value=0.138
binder="ePGDM9 (antibody, V domains shown) VH: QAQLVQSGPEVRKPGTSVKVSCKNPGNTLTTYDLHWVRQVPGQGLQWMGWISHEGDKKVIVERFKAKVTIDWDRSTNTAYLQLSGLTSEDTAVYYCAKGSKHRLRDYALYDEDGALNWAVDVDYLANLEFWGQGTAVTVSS VL: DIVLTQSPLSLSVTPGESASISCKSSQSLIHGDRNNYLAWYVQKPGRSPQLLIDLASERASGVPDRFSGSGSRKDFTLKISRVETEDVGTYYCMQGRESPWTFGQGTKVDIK" measured_quantity="IC80 (µg/ml) with constrains" meas_value=0.008

For the next question, use this binder.
Q) May I ask what IC80 (µg/ml) with constrains has been recorded for PGDM1400 (antibody, V domains shown) VH: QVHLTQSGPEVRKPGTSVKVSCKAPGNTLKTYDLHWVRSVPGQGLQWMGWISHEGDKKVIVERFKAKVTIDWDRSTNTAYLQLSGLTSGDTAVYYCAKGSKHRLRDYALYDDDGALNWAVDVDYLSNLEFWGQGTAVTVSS VL: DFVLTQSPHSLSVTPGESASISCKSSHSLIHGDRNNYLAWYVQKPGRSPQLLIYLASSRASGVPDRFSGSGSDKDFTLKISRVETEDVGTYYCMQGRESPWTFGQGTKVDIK ?
A) 0.101

Recorded values, source patent US20230134571A1.
